All values here come from patent US20100094026A1.

experimental_readout: pKd
Give only the number. pKd is defined as minus log10 of concentration in molar units.

Exercise: Name the value of pKd reported for "O=C(O)c1cc(=O)c2c(OCC(O)COc3cccc4oc(C(=O)O)cc(=O)c34)cccc2o1" when tested on Standard Human Vimentin (Homo sapiens).
Sequence (P08670 whole entry): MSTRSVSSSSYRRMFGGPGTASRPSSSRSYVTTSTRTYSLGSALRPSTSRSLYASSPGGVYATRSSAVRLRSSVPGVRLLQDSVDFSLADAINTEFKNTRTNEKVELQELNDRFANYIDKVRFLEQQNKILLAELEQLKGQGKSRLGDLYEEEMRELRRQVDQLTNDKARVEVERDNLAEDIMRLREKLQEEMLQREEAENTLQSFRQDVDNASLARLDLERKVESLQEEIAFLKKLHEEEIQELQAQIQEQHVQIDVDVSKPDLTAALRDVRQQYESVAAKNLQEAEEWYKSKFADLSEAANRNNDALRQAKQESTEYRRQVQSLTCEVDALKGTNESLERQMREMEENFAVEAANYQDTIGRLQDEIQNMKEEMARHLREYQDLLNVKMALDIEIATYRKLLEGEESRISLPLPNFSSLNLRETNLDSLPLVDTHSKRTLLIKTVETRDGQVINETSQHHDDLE
Solution: 7.25
